B1: ZBED1 (parent)
chain: EQVFSLGDGVSGGFFGIRDSSFL

- Variants of: B1
- MEASUREMENT_PROTOCOL: protein stability index of a GFP-peptide fusion (GPS, HEK-293T) (PSI 1-6); higher = more stable;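 note: lentivirally expressed fusions sorted by FACS into six bins by GFP to DsRed ratio, PSI derived from sequencing read proportions per bin multiplied by bin number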
- COND: c terminus: native
MEASURED_QUANTITY: protein stability index
Numbers only.

[[record]]
mutation_label = "S21T"
measured_quantity = "protein stability index"
endpoint_value = 3.33

[[record]]
mutation_label = "G7L"
measured_quantity = "protein stability index"
endpoint_value = 2.18

[[record]]
mutation_label = "F14S"
measured_quantity = "protein stability index"
endpoint_value = 3.71

[[record]]
mutation_label = "S20Q"
measured_quantity = "protein stability index"
endpoint_value = 3.7


Now turn to the next variant.
Field request: protein stability index | item: `S11C`
2.48
